Target: NANPNVDP (Plasmodium falciparum)
Assay: BLI, target on sensor
Entries and their measured Kd follow.

Input line: # lookup: Kd of AB-007031 (antibody, V domains shown) VH: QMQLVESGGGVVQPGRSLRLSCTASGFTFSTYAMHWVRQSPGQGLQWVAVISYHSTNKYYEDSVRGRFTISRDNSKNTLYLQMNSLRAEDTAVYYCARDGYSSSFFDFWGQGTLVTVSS VL: DIQMTQSPSTLSASVGDRVAITCRASQSISRWLAWYQQQPGKAPKLLISGASVLESGVPSRFSGSGSGTEFTLTISSLQPDDFATYYCQHYNSYFVTFGQGTKVEIK
Output line: 7.02 nM

Input line: # lookup: Kd of AB-007063 (antibody, V domains shown) VH: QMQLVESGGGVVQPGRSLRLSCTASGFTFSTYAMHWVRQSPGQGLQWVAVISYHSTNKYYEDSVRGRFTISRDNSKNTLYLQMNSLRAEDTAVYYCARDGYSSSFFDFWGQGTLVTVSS VL: DIQMTQSPSTLSASVGDRVAITCRASQSISRWLAWYQQQPGKAPKLLMAGASVLESGVPSRFSGSGSGTEFTLTISSLQPDDFATYYCQHYNSYFVTFGQGTKVEIK
Output line: 13.1 nM

Input line: # lookup: Kd of AB-007064 (antibody, V domains shown) VH: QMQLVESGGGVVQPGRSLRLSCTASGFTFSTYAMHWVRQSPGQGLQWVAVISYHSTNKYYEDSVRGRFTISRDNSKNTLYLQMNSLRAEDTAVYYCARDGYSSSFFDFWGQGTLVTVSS VL: DIQMTQSPSTLSASVGDRVAITCRASQSISRWLAWYQQQPGKAPKLLMTGASVLESGVPSRFSGSGSGTEFTLTISSLQPDDFATYYCQHYNSYFVTFGQGTKVEIK
Output line: 36.7 nM

Input line: # lookup: Kd of AB-007030 (antibody, V domains shown) VH: QMQLVESGGGVVQPGRSLRLSCTASGFTFSTYAMHWVRQSPGQGLEWVAVISYHSTNKYYADSVRGRFTISRDNSKNTLYLQMNSLRAEDTAVYYCARDGYSSSFFDFWGQGTLVTVSS VL: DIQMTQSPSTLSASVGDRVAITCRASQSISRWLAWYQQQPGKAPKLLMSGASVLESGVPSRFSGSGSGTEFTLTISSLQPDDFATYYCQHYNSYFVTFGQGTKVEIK
Output line: 7.92 nM

Input line: # lookup: Kd of AB-007068 (antibody, V domains shown) VH: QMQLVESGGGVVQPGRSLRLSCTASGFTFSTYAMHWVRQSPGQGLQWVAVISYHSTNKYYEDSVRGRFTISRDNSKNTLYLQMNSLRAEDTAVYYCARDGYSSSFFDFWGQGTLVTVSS VL: DIQMTQSPSTLSASVGDRVAITCRASQSISRWLAWYQQQPGKAPKLLMSLASVLESGVPSRFSGSGSGTEFTLTISSLQPDDFATYYCQHYNSYFVTFGQGTKVEIK
Output line: 21.8 nM

Input line: # lookup: Kd of AB-007052 (antibody, V domains shown) VH: QMQLVESGGGVVQPGRSLRLSCTASGFTFSTYAMHWVRQSPGQGLQWVAVISYHSNNKYYEDSVRGRFTISRDNSKNTLYLQMNSLRAEDTAVYYCARDGYSSSFFDFWGQGTLVTVSS VL: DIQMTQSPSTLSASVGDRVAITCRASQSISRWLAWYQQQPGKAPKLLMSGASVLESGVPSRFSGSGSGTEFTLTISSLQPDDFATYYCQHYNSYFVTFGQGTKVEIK
Output line: 7.34 nM

Input line: # lookup: Kd of AB-007042 (antibody, V domains shown) VH: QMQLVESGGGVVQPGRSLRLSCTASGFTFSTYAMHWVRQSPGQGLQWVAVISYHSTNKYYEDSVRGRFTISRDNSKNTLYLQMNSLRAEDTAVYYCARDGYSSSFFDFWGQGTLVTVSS VL: DIQMTQSPSTLSASVGDRVAITCRASQDISRWLAWYQQQPGKAPKLLMSGASVLESGVPSRFSGSGSGTEFTLTISSLQPDDFATYYCQHYNSYFVTFGQGTKVEIK
Output line: 8.56 nM

Input line: # lookup: Kd of AB-007046 (antibody, V domains shown) VH: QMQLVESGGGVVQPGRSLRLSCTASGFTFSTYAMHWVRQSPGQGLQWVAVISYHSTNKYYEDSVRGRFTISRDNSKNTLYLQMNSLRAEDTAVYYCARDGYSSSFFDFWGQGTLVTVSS VL: DIQMTQSPSTLSASVGDRVAITCRASQSISRWLAWYQQQPGKAPKLLMSGASVLESGVPSRFSGSGSGTEFTLTISSLQPDDFATYYCQHYYSYFVTFGQGTKVEIK
Output line: 11.1 nM

Input line: # lookup: Kd of AB-007043 (antibody, V domains shown) VH: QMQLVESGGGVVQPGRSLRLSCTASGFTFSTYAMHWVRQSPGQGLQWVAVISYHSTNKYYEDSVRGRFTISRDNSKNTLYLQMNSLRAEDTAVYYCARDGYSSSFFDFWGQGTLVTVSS VL: DIQMTQSPSTLSASVGDRVAITCRASQSISRWLAWYQQQPGKAPKLLMSGASVLEDGVPSRFSGSGSGTEFTLTISSLQPDDFATYYCQHYNSYFVTFGQGTKVEIK
Output line: 10.4 nM

Input line: # lookup: Kd of AB-007044 (antibody, V domains shown) VH: QMQLVESGGGVVQPGRSLRLSCTASGFTFSTYAMHWVRQSPGQGLQWVAVISYHSTNKYYEESVRGRFTISRDNSKNTLYLQMNSLRAEDTAVYYCARDGYSSSFFDFWGQGTLVTVSS VL: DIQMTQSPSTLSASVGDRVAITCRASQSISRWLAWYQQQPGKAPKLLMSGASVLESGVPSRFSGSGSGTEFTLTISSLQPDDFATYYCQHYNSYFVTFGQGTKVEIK
Output line: 8.61 nM
